# Test protocol: Absorption characteristics: transmission spectrum of near-infrared absorbing layer of NIR filter (UV-visible spectrophotometer)
# Format: physicochemical
# Assay context: transparent resin polycarbonate SP3810, nd(B) 1.63, film thickness 2.8 μm
Outcome measure: λa (nm)

- Compound: "Cc1ccc(C)c(OCCCC(C)(C)C(=O)Nc2cc3c(cc2C2=C([O-])C(=c4cc5c(cc4NC(=O)C(C)(C)CCCOc4cc(C)ccc4C)=[N+](C)C(C)C5(C)C)C2=O)C(C)(C)C(C)N3C)c1 (centres unmarked)"
  Outcome measure: "λa"
  Observed: 689
- Compound: "CC(CCC(C(=O)Nc1cc2c(cc1C1=C([O-])C(=c3cc4c(cc3NC(=O)C(CCC(C)CC(C)(C)C)C(C)CC(C)(C)C)=[N+](C)C(C)C4(C)C)C1=O)C(C)(C)C(C)N2C)C(C)CC(C)(C)C)CC(C)(C)C (centres unmarked)"
  Outcome measure: "λa"
  Observed: 693
- Compound: "CCCCCCCCCCCC(=O)Nc1cc2c(cc1C1=C([O-])C(=c3cc4c(cc3NC(=O)CCCCCCCCCCC)=[N+](C)C(C)C4(C)C)C1=O)C(C)(C)C(C)N2C (centres unmarked) [Example A11-25, reference compound]"
  Outcome measure: "λa"
  Observed: 694
- Compound: "CC(=O)Nc1cc2c(cc1C1=C([O-])C(=c3cc4c(cc3NC(C)=O)=[N+](C)C(C)C4(C)C)C1=O)C(C)(C)C(C)N2C (centres unmarked) [Example A11-20, reference compound]"
  Outcome measure: "λa"
  Observed: 694
- Compound: "CCCCCCCC(=O)Nc1cc2c(cc1C1=C([O-])C(=c3cc4c(cc3NC(=O)CCCCCCC)=[N+](C)C(C)C4(C)C)C1=O)C(C)(C)C(C)N2C (centres unmarked) [Example A11-24, reference compound]"
  Outcome measure: "λa"
  Observed: 694

----------
# Test protocol: Absorption characteristics: transmission spectrum of near-infrared absorbing layer of NIR filter (UV-visible spectrophotometer)
# Type: physicochemical
# Assay context: transparent resin polycarbonate SP3810, nd(B) 1.63, film thickness 1.0 μm
Outcome measure: λb (nm)

- Compound: "CCCCCCCC(=O)Nc1cc2c(cc1C1=C([O-])C(=c3cc4c(cc3NC(=O)CCCCCCC)=[N+](C)C(C)C4(C)C)C1=O)C(C)(C)C(C)N2C (stereo not drawn) [Example A11-24, reference compound]"
  Observed: 723
- Compound: "CCCCC(CC)C(=O)Nc1cc2c(cc1C1=C([O-])C(=c3cc4c(cc3NC(=O)C(CC)CCCC)=[N+](C(C)C)C(C)C4(C)C)C1=O)C(C)(C)C(C)N2C(C)C (stereo not drawn)"
  Observed: 730
- Compound: "CC(CCC(C(=O)Nc1cc2c(cc1C1=C([O-])C(=c3cc4c(cc3NC(=O)C(CCC(C)CC(C)(C)C)C(C)CC(C)(C)C)=[N+](C)C(C)C4(C)C)C1=O)C(C)(C)C(C)N2C)C(C)CC(C)(C)C)CC(C)(C)C (stereo not drawn)"
  Observed: 723
- Compound: "CCCCC(CC)C(=O)Nc1cc2c(cc1C1=C([O-])C(=c3cc4c(cc3NC(=O)C(CC)CCCC)=[N+](C)C(C)C4(C)C)C1=O)C(C)(C)C(C)N2C (stereo not drawn)"
  Observed: 724
- Compound: "Cc1ccc(C)c(OCCCC(C)(C)C(=O)Nc2cc3c(cc2C2=C([O-])C(=c4cc5c(cc4NC(=O)C(C)(C)CCCOc4cc(C)ccc4C)=[N+](C)C(C)C5(C)C)C2=O)C(C)(C)C(C)N3C)c1 (stereo not drawn)"
  Observed: 719
- Compound: "CCCC(CCC)C(=O)Nc1cc2c(cc1C1=C([O-])C(=c3cc4c(cc3NC(=O)C(CCC)CCC)=[N+](C)C(C)C4(C)C)C1=O)C(C)(C)C(C)N2C (stereo not drawn)"
  Observed: 724
- Compound: "CCCC(C)(C)C(=O)Nc1cc2c(cc1C1=C([O-])C(=c3cc4c(cc3NC(=O)C(C)(C)CCC)=[N+](C)C(C)C4(C)C)C1=O)C(C)(C)C(C)N2C (stereo not drawn)"
  Observed: 719
- Compound: "CC(=O)Nc1cc2c(cc1C1=C([O-])C(=c3cc4c(cc3NC(C)=O)=[N+](C)C(C)C4(C)C)C1=O)C(C)(C)C(C)N2C (stereo not drawn) [Example A11-20, reference compound]"
  Observed: 723
- Compound: "CCCCCCCCCCCC(=O)Nc1cc2c(cc1C1=C([O-])C(=c3cc4c(cc3NC(=O)CCCCCCCCCCC)=[N+](C)C(C)C4(C)C)C1=O)C(C)(C)C(C)N2C (stereo not drawn) [Example A11-25, reference compound]"
  Observed: 723

----------
# Test protocol: Absorption characteristics: transmission spectrum of near-infrared absorbing layer of NIR filter (UV-visible spectrophotometer)
# Type: physicochemical
# Assay context: transparent resin polycarbonate EP5000, nd(B) 1.63, film thickness 2.4 μm
Outcome measure: 430 nm to 600 nm Average transmittance (%)

- Compound: "CCCC(C)(C)C(=O)Nc1cc2c(cc1C1=C([O-])C(=c3cc4c(cc3NC(=O)C(C)(C)CCC)=[N+](C)C(C)C4(C)C)C1=O)C(C)(C)C(C)N2C (stereo not shown)"
  430 nm to 600 nm Average transmittance / %: 95.5
- Compound: "CC(=O)Nc1cc2c(cc1C1=C([O-])C(=c3cc4c(cc3NC(C)=O)=[N+](C)C(C)C4(C)C)C1=O)C(C)(C)C(C)N2C (stereo not shown) [Example A11-20, reference compound]"
  430 nm to 600 nm Average transmittance / %: 95.6
- Compound: "CCCCCCCC(=O)Nc1cc2c(cc1C1=C([O-])C(=c3cc4c(cc3NC(=O)CCCCCCC)=[N+](C)C(C)C4(C)C)C1=O)C(C)(C)C(C)N2C (stereo not shown) [Example A11-24, reference compound]"
  430 nm to 600 nm Average transmittance / %: 95.9
- Compound: "CC(CCC(C(=O)Nc1cc2c(cc1C1=C([O-])C(=c3cc4c(cc3NC(=O)C(CCC(C)CC(C)(C)C)C(C)CC(C)(C)C)=[N+](C)C(C)C4(C)C)C1=O)C(C)(C)C(C)N2C)C(C)CC(C)(C)C)CC(C)(C)C (stereo not shown)"
  430 nm to 600 nm Average transmittance / %: 95.7

----------
# Test protocol: Absorption characteristics: transmission spectrum of near-infrared absorbing layer of NIR filter (UV-visible spectrophotometer)
# Format: physicochemical
# Assay context: transparent resin polycarbonate EP5000, nd(B) 1.63, film thickness 2.4 μm
Outcome measure: λmax (nm)

- Compound: "CC(CCC(C(=O)Nc1cc2c(cc1C1=C([O-])C(=c3cc4c(cc3NC(=O)C(CCC(C)CC(C)(C)C)C(C)CC(C)(C)C)=[N+](C)C(C)C4(C)C)C1=O)C(C)(C)C(C)N2C)C(C)CC(C)(C)C)CC(C)(C)C (stereo not shown)"
  λmax, nm: 709
- Compound: "CCCCC(CC)C(=O)Nc1cc2c(cc1C1=C([O-])C(=c3cc4c(cc3NC(=O)C(CC)CCCC)=[N+](C(C)C)C(C)C4(C)C)C1=O)C(C)(C)C(C)N2C(C)C (stereo not shown)"
  λmax, nm: 715
- Compound: "Cc1ccc(C)c(OCCCC(C)(C)C(=O)Nc2cc3c(cc2C2=C([O-])C(=c4cc5c(cc4NC(=O)C(C)(C)CCCOc4cc(C)ccc4C)=[N+](C)C(C)C5(C)C)C2=O)C(C)(C)C(C)N3C)c1 (stereo not shown)"
  λmax, nm: 705
- Compound: "CCCC(C)(C)C(=O)Nc1cc2c(cc1C1=C([O-])C(=c3cc4c(cc3NC(=O)C(C)(C)CCC)=[N+](C)C(C)C4(C)C)C1=O)C(C)(C)C(C)N2C (stereo not shown)"
  λmax, nm: 705

----------
# Test protocol: Solubility of dye to organic solvent
# Assay type: physicochemical
# Assay context: toluene, 50° C.; mass % of the dye to the mass of the entire solution
Outcome measure: Solubility to organic solvent: Toluene (%< mass %)

- Compound: "CC(CCC(C(=O)Nc1cc2c(cc1C1=C([O-])C(=c3cc4c(cc3NC(=O)C(CCC(C)CC(C)(C)C)C(C)CC(C)(C)C)=[N+](C)C(C)C4(C)C)C1=O)C(C)(C)C(C)N2C)C(C)CC(C)(C)C)CC(C)(C)C (centres unmarked)"
  Observed: 10
- Compound: "CCCCC(CC)C(=O)Nc1cc2c(cc1C1=C([O-])C(=c3cc4c(cc3NC(=O)C(CC)CCCC)=[N+](CC)C(C)C4(C)C)C1=O)C(C)(C)C(C)N2CC (centres unmarked)"
  Observed: 10
- Compound: "CCCC(CCC)C(=O)Nc1cc2c(cc1C1=C([O-])C(=c3cc4c(cc3NC(=O)C(CCC)CCC)=[N+](C)C(C)C4(C)C)C1=O)C(C)(C)C(C)N2C (centres unmarked)"
  Observed: 10

Every entry's value here was drawn from patent US10495796B2.
